System: SK-MEL-2 melanoma
Test: NCI tumour cell line growth inhibition, 48 h
Collected TGI values appear next to each entry.
endpointName: TGI (µM)

compound=BrCC[P+](c1ccccc1)(c1ccccc1)c1ccccc1 sign== number=16.7
compound=OCCCCC#Cc1ccccc1C#Cc1cnccn1 sign=> number=100
compound=C[C@@H](C[C@@H](O)[C@H](O)C(C)(C)O)[C@H]1CC=C2[C@]3(C)[C@H](O)C[C@H]4C(C)(C)[C@H](O)CC[C@]4(C)[C@H]3CC[C@@]21C sign== number=34.9
compound=CN(C)CCNc1nc2ccccc2c2c1C(=O)c1ccccc1-2 sign== number=1.55
compound="CN(C)CCNC(=O)c1cccc2c(NC(CS)C(=O)O)c3ccccc3nc12 (stereo unspecified)" sign== number=27.7
compound=O=[N+]([O-])c1cccc(-c2ncc(-c3ccc(Cl)cc3Cl)[nH]2)c1 sign== number=41.3
compound="CN1C(=O)C23CC4=CC=CC(O)C4N2C(=O)C1(CO)SS3 (stereo unspecified)" sign== number=0.617
compound=COC1(OC)/C(=C(\N)C=O)NC(C)(C)N1O sign=> number=100
compound="CCOC(=O)C(Cc1c(-c2[nH]c3ccccc3c2CC(NC(=O)CNC(C)=O)C(=O)OCC)[nH]c2ccccc12)NC(=O)CNC(C)=O (stereo unspecified)" sign== number=39.9
compound="O=C(NO)C(O)C(O)C(O)C(O)CO (stereo unspecified)" sign=> number=100
compound="CC(C)CC1c2[nH]c3ccccc3c2C[C@H]2C(=O)NC(COC(C)(C)C)C(=O)N12 (stereo partly specified)" sign== number=38.8

###

Test system: SW-620 colon
Assay: NCI tumour cell line growth inhibition, 48 h
Collected TGI values appear next to each entry.
endpointName: TGI

compound="CCOC(=N)CC(=O)NC(C)c1ccccc1 (configuration not stated)" endpointname=TGI result="> 100 µM"
compound="CCCCCCN(CCCCCC)CC(O)c1cccc2ccc(Cl)cc12 (configuration not stated)" endpointname=TGI result="15 µM"
compound="CC(C)=C1CCC(CN2CCCC2)C1=O (configuration not stated)" endpointname=TGI result="47.5 µM"
compound=COc1ccc(NC(=O)C2=C(SC)C(=O)N=C2N)cc1 endpointname=TGI result="> 100 µM"
compound=CC(=O)Nc1ccc(-n2cnc3cc(-c4ccc(OCCN5CCCCC5)cc4)ccc32)cc1 endpointname=TGI result="2.79 µM"
compound="O=C(CC(C(=O)O)N1CCOCC1)c1ccccc1 (configuration not stated)" endpointname=TGI result="44.1 µM"
compound="CC1(C)CC2(C)OC2C2(C1)N=NC(=Nc1ccccc1)O2 (configuration not stated)" endpointname=TGI result="9.28 µM"
compound=COc1ccc(N=C2NN=C(c3c[nH]c4ccccc34)CS2)cc1OC endpointname=TGI result="> 60.4 µM"
compound="COC(=O)C1CCC(=NC2c3ccccc3-c3ccccc32)N1 (configuration not stated)" endpointname=TGI result="> 100 µM"
compound=CCCCCCN1C(=O)CN=C1Nc1ccc2cc3ccc(NC4=NCC(=O)N4CCCCCC)cc3nc2c1 endpointname=TGI result="3.7 µM"
compound=CC[C@@]1(O)C(=O)OCc2c1cc1n(c2=O)Cc2cc3c(NC(C)=O)c(O)ccc3nc2-1 endpointname=TGI result="> 100 µM"
compound="O=C1N2CCc3c([nH]c4ccccc34)C23CC2CCCC12S3 (configuration not stated)" endpointname=TGI result="> 50 µM"
compound="Cc1cc2c(cc1Cl)SC1=NN(C)C(c3ccccc3O)N1S2(=O)=O (configuration not stated)" endpointname=TGI result="> 100 µM"
compound=COc1ncnc2c(-c3ccco3)cn(COCc3ccccc3)c12 endpointname=TGI result="> 50 µM"
compound=CCN1CC2(C)CC[C@@H](OC)C34[C@@H]2[C@H](OC(C)=O)C2(OCO[C@@]25C[C@H](OC)C2C[C@]3(O)[C@@H]5[C@H]2O)[C@H]14 endpointname=TGI result="> 100 µM"
compound=CCOC(=O)NNC(=O)NC12CC3CC(CC(C3)C1)C2 endpointname=TGI result="> 100 µM"
compound="O=[N+]([O-])O.[NH-]C1CCCCC1[NH-].[NH-]C1CCCCC1[NH-].[NH-]C1CCCCC1[NH-].[OH-].[OH-].[OH-].[Pt+4].[Pt+4].[Pt+4] (configuration not stated)" endpointname=TGI result="> 100 µM"
compound="CC(C)[Si]1(C(C)C)OCC2OC(n3cnc4c(N)ncnc43)C(N)C2O[Si](C(C)C)(C(C)C)O1 (configuration not stated)" endpointname=TGI result="> 45.4 µM"
compound="C=CC1(CCC(Br)C(C)(C)Cl)CO1 (configuration not stated)" endpointname=TGI result="> 10 µM"
compound=CCOc1cc(C=O)ccc1O endpointname=TGI result="> 100 µM"
compound="COc1cc(O)c2c(c1)C(O)C(O)CC1OC1C(=O)/C=C/CC(C)OC2=O (configuration not stated)" endpointname=TGI result="6.84 µM"
compound=O=C(CN=Cc1cccs1)CSC(c1ccccc1)c1ccccc1 endpointname=TGI result="> 100 µM"
